melting point by entry:

Use these answered entries as a reference point.
[
  {
    "Compound": "COc1cc(C(=O)Nc2c(C)cc3cn(C(=O)OC(C)(C)C)nc3c2C(=O)NC(C)C)n(-c2ncccc2Cl)n1",
    "Value": "161 to 162 °C"
  },
  {
    "Compound": "COc1cc(C(=O)Nc2c(C)cc3cn(-c4nc(Cl)nc(Cl)n4)nc3c2C(=O)NC(C)C)n(-c2ncccc2Cl)n1",
    "Value": "216 °C (dec.)"
  },
  {
    "Compound": "CCOC(=O)CSC(=O)n1cc2cc(C)c(NC(=O)c3cc(OC)nn3-c3ncccc3Cl)c(C(=O)NC(C)C)c2n1",
    "Value": "85 to 86 °C"
  },
  {
    "Compound": "COc1cc(C(=O)Nc2c(C)cc3cn(Cc4ccccn4)nc3c2C(=O)NC(C)C)n(-c2ncccc2Cl)n1",
    "Value": "156 to 160 °C"
  }
]

[ask] Reported melting point for COc1cc(C(=O)Nc2c(C)cc3cn(-c4nc(OC)nc(OC)n4)nc3c2C(=O)NC(C)C)n(-c2ncccc2Cl)n1 : what is it?
[reply] 226 to 230 °C

[ask] # melting point lookup, item CCCCCCCCN(C)C(=O)n1cc2cc(C)c(NC(=O)c3cc(OC)nn3-c3ncccc3Cl)c(C(=O)NC(C)C)c2n1
[reply] 66 to 70 °C
